B1: LINE1-mini (parent)
chain: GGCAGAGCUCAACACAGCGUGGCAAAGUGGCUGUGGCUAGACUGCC

Variants of: B1
Method summary: self-cleavage, relative activity (ratio to wild type); higher = more cleavage; in vitro, sequencing; the parent is a self-cleaving ribozyme
Would you mind sorting the entries by self-cleavage according to these classes? range 1 = under 0.07, range 2 = from 0.07 up to 0.2, range 3 = 0.2 and over

As a guide, the following entries are already answered.
Variant description	Assigned class
C10A G35C	range 1
C3A G5A	range 3
A12G A25U	range 1

Query string: Classify this variant: C23U U38C
Result string: range 3

Query string: One more variant: C3G G40C
Result string: range 2

Query string: One more variant: C15A C37U
Result string: range 2

Query string: One more variant: G17U G22A
Result string: range 3
